# Experimental target: Saccharose Synthase (Solanum tuberosum, UniProt P10691)
# Construct: made in house; host or cells: Saccharomyces cerevisiae strain 22574d, plasmid pDRSuSy (pDR195, proton-ATPase promoter)
# Sequence (P10691 whole entry): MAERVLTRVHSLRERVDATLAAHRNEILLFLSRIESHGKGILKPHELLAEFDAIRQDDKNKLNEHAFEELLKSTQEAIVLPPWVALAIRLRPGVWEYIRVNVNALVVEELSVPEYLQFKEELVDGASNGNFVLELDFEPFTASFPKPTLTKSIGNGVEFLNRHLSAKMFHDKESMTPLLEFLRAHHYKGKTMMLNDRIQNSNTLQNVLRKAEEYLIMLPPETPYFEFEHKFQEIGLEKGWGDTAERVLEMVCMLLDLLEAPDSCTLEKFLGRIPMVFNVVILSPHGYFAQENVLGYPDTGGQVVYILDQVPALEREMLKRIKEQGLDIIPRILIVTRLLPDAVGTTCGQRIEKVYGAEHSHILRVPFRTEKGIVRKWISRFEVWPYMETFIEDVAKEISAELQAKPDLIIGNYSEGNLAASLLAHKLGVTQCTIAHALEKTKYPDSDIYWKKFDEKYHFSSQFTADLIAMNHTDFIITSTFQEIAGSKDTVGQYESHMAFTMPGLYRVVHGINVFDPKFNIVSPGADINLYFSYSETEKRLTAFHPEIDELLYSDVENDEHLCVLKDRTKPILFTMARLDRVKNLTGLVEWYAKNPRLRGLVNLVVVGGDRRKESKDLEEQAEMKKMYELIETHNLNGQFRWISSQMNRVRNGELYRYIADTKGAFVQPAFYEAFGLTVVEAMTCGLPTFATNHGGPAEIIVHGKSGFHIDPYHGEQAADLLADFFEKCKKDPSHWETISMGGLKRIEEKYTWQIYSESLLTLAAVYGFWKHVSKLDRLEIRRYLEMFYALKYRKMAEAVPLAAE
# Procedure text: acceptance of different NDP's in saccharose splitting
# Type: biochemical
# Test context: NDP 1.6 mM, saccharose 500 mM, 0.035 U enzyme, pH 7.6, 30° C.
Observed property: acceptance of NDP's in saccharose splitting as a function of reaction time (sequence)

The examples below pair each entry with its known result.
{"Molecule": "Nc1ccn([C@@H]2O[C@H](COP(=O)(O)OP(=O)(O)O)[C@@H](O)[C@H]2O)c(=O)n1 [CDP]", "Reported result": "UDP>ADP=TDP>CDP>GDP"}
{"Molecule": "O=c1ccn([C@@H]2O[C@H](COP(=O)(O)OP(=O)(O)O)[C@@H](O)[C@H]2O)c(=O)[nH]1 [UDP]", "Reported result": "UDP>ADP=TDP>CDP>GDP"}
{"Molecule": "Nc1nc2c(ncn2[C@@H]2O[C@H](COP(=O)(O)OP(=O)(O)O)[C@@H](O)[C@H]2O)c(=O)[nH]1 [GDP]", "Reported result": "UDP>ADP=TDP>CDP>GDP"}
{"Molecule": "Cc1cn([C@H]2C[C@H](O)[C@@H](COP(=O)(O)OP(=O)(O)O)O2)c(=O)[nH]c1=O [TDP]", "Reported result": "UDP>ADP=TDP>CDP>GDP"}

Next, consider the following molecule.
Tell me acceptance of NDP's in saccharose splitting as a function of reaction time (sequence) reported for Nc1ncnc2c1ncn2[C@@H]1O[C@H](COP(=O)(O)OP(=O)(O)O)[C@@H](O)[C@H]1O [ADP] UDP>ADP=TDP>CDP>GDP
